# Test system: P388
# Test Method Notes: In vitro rate of inhibition of P388 tumor cell growth at 10E-4 mol/L
# Format: functional, Mus musculus
# Setup Conditions: at 100 µM
Entries annotated with measured Rate of inhibition
Kindly provide the numeric value in % only, without the unit symbol.

Example entries begin here.
Molecule | System Name | Rate of inhibition [%]
COc1ccccc1C(=O)N1N=C(c2ccccc2)NN=C1c1ccccc1 | P388 | 64.5
C1=CN(c2nnc(N3C=CN=CC3)nn2)CC=N1 | P388 | 69.9
CCCCCOC(=O)N1N=C(C)N=NC1C (stereo not drawn) | P388 | 42.6

Asked: Which value of Rate of inhibition has been reported for `CCCC1=NN(C(=O)Nc2cccc(Cl)c2)C(CCC)=NN1C(=O)Nc1cccc(Cl)c1` in the records?
Given back: 84.4

Asked: Sample `CC1=NN(C(=O)NC2CCCCC2)C(C)=NN1C(=O)NC1CCCCC1` — what was its Rate of inhibition?
Given back: 72.6
